Sourced from patent US11898114B2

Below, each entry is listed with its recorded Aqueous layer concentration of component.
# assayRemarks: Water solubility (extraction into water, TOC and GC-MS-FID)
# Format: physicochemical
# recordedConditions: component of B*POME1-6 extracted into water, 1:5 water:B*POME1-6
propertyLabel: Aqueous layer concentration of component (g/L)

molecule="CCCCOCOCOCOCOC [MB-POME4]" propertylabel="Aqueous layer concentration of component" experimentalresult=0.4
molecule="COCOCOCOCOCOC [MM-POME5]" propertylabel="Aqueous layer concentration of component" experimentalresult=1.1
molecule="COCOCOC [MM-POME2]" propertylabel="Aqueous layer concentration of component" experimentalresult=0.6
molecule="CCCCOCOCOCOC [MB-POME3]" propertylabel="Aqueous layer concentration of component" experimentalresult=1.1
molecule="CCCCOCOCOCOCOCOC [MB-POME5]" propertylabel="Aqueous layer concentration of component" experimentalresult=0.1
molecule="CCCCOCOCOC [MB-POME2]" propertylabel="Aqueous layer concentration of component" experimentalresult=2.4
molecule="COCOCOCOCOCOCOC [MM-POME6]" propertylabel="Aqueous layer concentration of component" experimentalresult=0.5
molecule="COCOCOCOCOC [MM-POME4]" propertylabel="Aqueous layer concentration of component" experimentalresult=1.5
molecule="CCCCOCOCOCCCC [BB-POME2]" propertylabel="Aqueous layer concentration of component" experimentalresult=0.1
molecule="CCCCOCOCCCC [BB-POME1, dibutoxymethane]" propertylabel="Aqueous layer concentration of component" experimentalresult=0.2
